- TARGET: Phosphatidylinositol 3-kinase regulatory subunit alpha/4,5-bisphosphate 3-kinase catalytic subunit alpha isoform (Homo sapiens, UniProt P27986+P42336)
- Sequence (P27986 whole entry, canonical isoform): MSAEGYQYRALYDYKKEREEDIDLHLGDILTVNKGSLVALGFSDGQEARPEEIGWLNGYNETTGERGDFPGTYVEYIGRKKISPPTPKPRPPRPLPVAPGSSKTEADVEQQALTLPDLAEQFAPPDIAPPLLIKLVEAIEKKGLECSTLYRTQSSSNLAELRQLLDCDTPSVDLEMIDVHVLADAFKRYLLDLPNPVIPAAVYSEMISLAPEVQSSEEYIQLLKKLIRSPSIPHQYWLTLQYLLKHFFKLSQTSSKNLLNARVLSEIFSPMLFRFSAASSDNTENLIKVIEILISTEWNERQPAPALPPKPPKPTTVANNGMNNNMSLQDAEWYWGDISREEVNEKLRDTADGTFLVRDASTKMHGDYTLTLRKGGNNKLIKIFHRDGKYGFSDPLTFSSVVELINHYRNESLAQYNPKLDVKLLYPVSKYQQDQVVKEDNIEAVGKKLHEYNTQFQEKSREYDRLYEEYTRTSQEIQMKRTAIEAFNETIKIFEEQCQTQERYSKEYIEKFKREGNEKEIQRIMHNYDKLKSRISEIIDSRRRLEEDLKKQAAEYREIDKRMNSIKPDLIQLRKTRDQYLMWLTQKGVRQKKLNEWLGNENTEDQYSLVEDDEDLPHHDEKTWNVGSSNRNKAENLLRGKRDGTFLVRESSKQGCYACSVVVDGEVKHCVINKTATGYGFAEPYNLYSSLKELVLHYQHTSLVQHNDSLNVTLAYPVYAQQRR
- Sequence (P42336 whole entry, canonical isoform): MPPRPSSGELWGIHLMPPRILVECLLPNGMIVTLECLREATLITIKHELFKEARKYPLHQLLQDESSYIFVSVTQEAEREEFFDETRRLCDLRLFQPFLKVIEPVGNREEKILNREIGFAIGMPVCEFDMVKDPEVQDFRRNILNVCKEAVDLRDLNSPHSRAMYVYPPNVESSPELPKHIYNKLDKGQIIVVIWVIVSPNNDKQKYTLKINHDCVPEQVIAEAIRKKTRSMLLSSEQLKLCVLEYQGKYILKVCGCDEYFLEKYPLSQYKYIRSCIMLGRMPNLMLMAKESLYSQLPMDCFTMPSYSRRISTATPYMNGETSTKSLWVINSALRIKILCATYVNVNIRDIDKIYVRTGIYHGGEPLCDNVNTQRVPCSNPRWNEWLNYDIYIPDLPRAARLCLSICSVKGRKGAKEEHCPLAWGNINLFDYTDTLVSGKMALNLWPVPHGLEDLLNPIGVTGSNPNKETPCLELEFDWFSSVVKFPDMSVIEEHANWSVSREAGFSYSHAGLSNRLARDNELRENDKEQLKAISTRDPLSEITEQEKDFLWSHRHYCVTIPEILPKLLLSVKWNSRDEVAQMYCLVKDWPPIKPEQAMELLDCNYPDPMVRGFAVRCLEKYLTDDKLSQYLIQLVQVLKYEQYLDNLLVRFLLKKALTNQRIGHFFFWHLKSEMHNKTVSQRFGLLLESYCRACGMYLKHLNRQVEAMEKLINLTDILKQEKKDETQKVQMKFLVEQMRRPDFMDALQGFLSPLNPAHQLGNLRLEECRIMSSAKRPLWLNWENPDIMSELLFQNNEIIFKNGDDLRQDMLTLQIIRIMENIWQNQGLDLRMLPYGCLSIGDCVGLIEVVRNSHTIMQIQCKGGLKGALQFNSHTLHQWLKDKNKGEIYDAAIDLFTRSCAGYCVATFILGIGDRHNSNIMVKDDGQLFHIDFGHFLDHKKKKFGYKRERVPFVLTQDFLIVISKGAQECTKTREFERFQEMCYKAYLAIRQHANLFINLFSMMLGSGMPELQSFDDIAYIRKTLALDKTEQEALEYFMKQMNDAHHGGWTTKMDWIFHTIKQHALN
- PROTOCOL_SUMMARY: Inhibition of PI3K p110alpha/p85alpha
Listing: log10 IC50 of selected compounds
// stored as log10 of IC50 expressed in nM

Some compounds with known log10 IC50 results, for comparison:
{"columns": ["STRUCTURE_SMILES_STRING", "ATTRIBUTE_MEASURED", "VAL"],
 "data": [
  ["O=C1CN(Cc2cn3cc(-c4cccc(O)c4)nc(N4CCOCC4)c3n2)CCN1", "log10 IC50", 2.73],
  ["OCc1cn2cc(-c3cccc(O)c3)nc(N3CCOCC3)c2n1", "log10 IC50", 2.81],
  ["Oc1cccc(-c2cn3cc(CN4CCOCC4)nc3c(N3CCOCC3)n2)c1", "log10 IC50", 2.65]
]}

Input CC(=O)N1CCN(Cc2cn3cc(-c4cccc(O)c4)nc(N4CCOCC4)c3n2)CC1 . Output log10 IC50: 2.65

Input O=C(NCCN1CCOCC1)c1cn2cc(-c3cccc4[nH]ncc34)nc(N3CCOCC3)c2n1 . Output log10 IC50: 1.58

Input Cc1cn2cc(-c3cccc(O)c3)nc(N3CCOCC3)c2n1 . Output log10 IC50: 1.98

Input Oc1cccc(-c2cn3cc(C(F)(F)F)nc3c(N3CCOCC3)n2)c1 . Output log10 IC50: 2.03

Hello, the source for this data is BindingDB's records for doi:10.1016/j.bmcl.2012.01.074, in case you need it.
